Listed here: items and their measured pEC50.
Biological target: Peroxisome proliferator-activated receptor gamma (Homo sapiens, UniProt P37231)
pEC50: −log10 of the molar value.
Quantity Measured: pEC50

CCOC(Cc1ccc(OCCN2CC=C(c3ncccn3)CC2)cc1)C(=O)O (configuration not stated)
5.34
CCOC(Cc1ccc(OCCCN2CC=C(c3ccc(Cl)c(Cl)c3)CC2)cc1)C(=O)O (configuration not stated)
6.14
CCOC(Cc1ccc(OCCN2CC=C(c3ccccc3C(F)(F)F)CC2)cc1)C(=O)O (configuration not stated)
5.12
CCOC(Cc1ccc(OCCN2CC=C(c3cc(Cl)ccc3Cl)CC2)cc1)C(=O)O (configuration not stated)
5.84
CCOC(Cc1ccc(OCCN2CC=C(c3ccccc3)CC2)cc1)C(=O)O (configuration not stated)
5.67
CCOC(Cc1ccc(OCCN2CC=C(c3cc(Cl)cc(Cl)c3)CC2)cc1)C(=O)O (configuration not stated)
5.85
CCOC(Cc1ccc(OCCN2CC=C(c3ccc(Cl)cc3Cl)CC2)cc1)C(=O)O (configuration not stated)
6.15
CCOC(Cc1ccc(OCCCN2CC=C(c3ccc(Cl)cc3)CC2)cc1)C(=O)O (configuration not stated)
5.63
CCOC(Cc1ccc(OCCN2CC=C(c3cccc(C(F)(F)F)c3)CC2)cc1)C(=O)O (configuration not stated)
5.65
CCOC(Cc1ccc(OCCN2CC=C(c3cccc(OC)c3)CC2)cc1)C(=O)O (configuration not stated)
5.62
CCOC(Cc1ccc(OCCN2CC=C(c3ccccc3Cl)CC2)cc1)C(=O)O (configuration not stated)
5.23
CCOC(Cc1ccc(OCCN2CC=C(c3ccc(OC)cc3)CC2)cc1)C(=O)O (configuration not stated)
6.40

---

Assay: Cmax in Sprague-Dawley rat at 3 mg/kg, po
Assay type: ADME, organism-based
Design: dose 3 mg/kg, route oral
Conditions: in vivo
Listed here: items and their measured Cmax.
Quantity Measured: Cmax (µM)

COc1ccc(OC(=O)N(CC(=O)O)Cc2ccc(OCCc3nc(-c4ccccc4)oc3C)cc2)cc1
25.8
CN(CCOc1ccc(CC2SC(=O)NC2=O)cc1)c1ccccn1 (stereo not drawn)
44.3
CCO[C@@H](Cc1ccc(OCCN2CC=C(c3ccc(Cl)cc3)CC2)cc1)C(=O)O
15.9

---

Biological target: Peroxisome proliferator-activated receptor gamma (Homo sapiens)
Sequence (P37231 whole entry): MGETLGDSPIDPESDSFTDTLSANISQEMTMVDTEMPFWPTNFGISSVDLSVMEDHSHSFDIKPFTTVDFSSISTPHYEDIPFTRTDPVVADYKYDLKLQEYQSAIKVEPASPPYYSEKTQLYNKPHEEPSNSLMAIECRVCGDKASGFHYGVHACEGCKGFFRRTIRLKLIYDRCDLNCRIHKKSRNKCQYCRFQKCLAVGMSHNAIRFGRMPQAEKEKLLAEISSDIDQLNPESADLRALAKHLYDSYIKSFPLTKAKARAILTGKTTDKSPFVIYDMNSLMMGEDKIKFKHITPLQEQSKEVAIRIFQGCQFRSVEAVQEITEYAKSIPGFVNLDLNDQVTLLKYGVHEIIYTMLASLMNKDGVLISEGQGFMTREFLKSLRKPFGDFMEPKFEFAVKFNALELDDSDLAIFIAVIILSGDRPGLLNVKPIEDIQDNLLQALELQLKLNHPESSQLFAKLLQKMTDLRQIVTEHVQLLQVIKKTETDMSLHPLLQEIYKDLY
Listed here: items and their measured EC50.
Quantity Measured: EC50

CCOC(Cc1ccc(OCCN2CC=C(c3ccc(F)cc3)CC2)cc1)C(=O)O (stereo not given)
3720 nM
CCOC(Cc1ccc(OCCN2CC=C(c3ccc(Cl)c(Cl)c3)CC2)cc1)C(=O)O (stereo not given)
670 nM
CCO[C@@H](Cc1ccc(OCCc2ccc(OS(C)(=O)=O)cc2)cc1)C(=O)O
704 nM
CCOC(Cc1ccc(OCCN2CC=C(c3cccs3)CC2)cc1)C(=O)O (stereo not given)
3300 nM
CCOC(Cc1ccc(OCCN2CC=C(c3cccc(Cl)c3)CC2)cc1)C(=O)O (stereo not given)
1670 nM
CCO[C@@H](Cc1ccc(OCCN2CC=C(c3ccc(Cl)c(Cl)c3)CC2)cc1)C(=O)O
862 nM
CCOC(Cc1ccc(OCCN2CC=C(c3ccccn3)CC2)cc1)C(=O)O (stereo not given)
2300 nM
CCC(Cc1ccc(OCCN2CC=C(c3ccc(Cl)cc3)CC2)cc1)C(=O)O (stereo not given)
5290 nM
CCOC(Cc1ccc(OCCN2CC=C(c3ccc(CC)cc3)CC2)cc1)C(=O)O (stereo not given)
689 nM
CCOC(Cc1ccc(OCCN2CC=C(c3ccccc3OC)CC2)cc1)C(=O)O (stereo not given)
3930 nM
CC(Cc1ccc(OCCN2CC=C(c3ccc(Cl)cc3)CC2)cc1)(Oc1ccccc1)C(=O)O (stereo not given)
4880 nM
CCO[C@@H](Cc1ccc(OCCN2CC=C(c3ccc(Cl)cc3)CC2)cc1)C(=O)O
639 nM
CCCc1ccc(C2=CCN(CCOc3ccc(CC(OCC)C(=O)O)cc3)CC2)cc1 (stereo not given)
174 nM
CCOC(Cc1ccc(OCCN2CC=C(c3ccc(C(F)(F)F)cc3)CC2)cc1)C(=O)O (stereo not given)
1890 nM
CC(C)(Oc1ccc(OCCN2CC=C(c3ccc(Cl)cc3)CC2)cc1)C(=O)O
22800 nM
CCOC(Cc1ccc(OCCN2CC=C(c3cccc(Cl)c3Cl)CC2)cc1)C(=O)O (stereo not given)
661 nM
CCOC(Cc1ccc(OCCN2CC=C(c3ccc(Cl)cc3)CC2)cc1)C(=O)O (stereo not given)
2060 nM
CCOC(Cc1ccc(OCCCN2CC=C(c3ccc(C(F)(F)F)cc3)CC2)cc1)C(=O)O (stereo not given)
504 nM
CC(C)(Oc1cccc(OCCN2CC=C(c3ccc(Cl)cc3)CC2)c1)C(=O)O
18800 nM
CCOC(Cc1ccc(OCCN2CC=C(c3cnccn3)CC2)cc1)C(=O)O (stereo not given)
12600 nM
